targetUnderTest: Human factor D (Homo sapiens (Human), UniProt P00746)
Sequence (P00746 26-253): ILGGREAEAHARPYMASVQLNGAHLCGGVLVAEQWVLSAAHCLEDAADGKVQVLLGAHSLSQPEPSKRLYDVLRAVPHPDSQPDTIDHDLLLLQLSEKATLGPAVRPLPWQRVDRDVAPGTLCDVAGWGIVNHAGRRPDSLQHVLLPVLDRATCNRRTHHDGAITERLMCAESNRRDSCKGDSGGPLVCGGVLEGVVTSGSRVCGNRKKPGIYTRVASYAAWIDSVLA
procedureDetails: Human Factor D Assay
Format: biochemical
conditionSet: human factor D 80 nM, substrate Z-L-Lys-SBz1 and DTNB 100 μM each, pH 7.5; read-out: IC50

{"columns": ["molecule", "targetUnderTest", "IC50"],
 "data": [
  ["CC(=O)c1cn(CC(=O)N2C[C@H](F)C[C@H]2C(=O)N[C@H](CO)c2cccc(Cl)c2F)c2ccc(Nc3cncnc3)cc12", "Human factor D (Homo sapiens (Human), UniProt P00746)", "< 1000 nM"],
  ["CC(=O)c1cn(CC(=O)N2C[C@H](F)C[C@H]2C(=O)NCc2cc(F)cc(Cl)c2)c2ccc(Nc3cncnc3)cc12", "Human factor D (Homo sapiens (Human), UniProt P00746)", "< 1000 nM"],
  ["CC(=O)c1cn(CC(=O)N2C[C@H](F)C[C@H]2C(=O)NCc2cccc(Cl)c2)c2ccc(Nc3cncnc3)cc12", "Human factor D (Homo sapiens (Human), UniProt P00746)", "< 1000 nM"]
]}
